study system: HNE (Calbiochem) (Homo sapiens)
Construct: purchased Calbiochem
Sequence (P08246 30-267): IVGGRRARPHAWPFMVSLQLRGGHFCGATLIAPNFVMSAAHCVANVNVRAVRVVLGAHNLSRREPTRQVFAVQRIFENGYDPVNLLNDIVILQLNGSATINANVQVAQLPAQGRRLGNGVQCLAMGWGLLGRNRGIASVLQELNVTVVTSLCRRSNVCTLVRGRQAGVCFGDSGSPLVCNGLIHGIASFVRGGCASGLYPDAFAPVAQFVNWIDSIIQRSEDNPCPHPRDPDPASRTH
method description: HNE inhibition assay
Format: biochemical
conditions: highest concentration tested 40 µM
measurement name: HNE inhibitory activity

# annotated cases, reported HNE inhibitory activity shown
* Cc1cccc(COc2nc(-c3ccccc3)cs2)c1 | inactive
* CC(=O)c1sc(OCOC(=O)c2ccccc2)nc1C | inactivity
* CC(=O)c1sc(=O)n(COC(=O)c2ccccc2)c1C | inactivity
* O=C(OCn1c(-c2ccccc2)csc1=O)c1ccccc1 | inactivity
* Cc1cccc(Cn2c(-c3ccccc3)csc2=O)c1 | inactive

Value lookup for HNE inhibitory activity; key = O=C(OCOc1nc(-c2ccccc2)cs1)c1ccccc1 [Compound 6a, (4-Phenylthiazol-2-yloxy)methyl benzoate] inactivity
